Source of measurements: the supplement of paper PMC12042874

assay: amyloid nucleation score (Sup35N fusion, yeast selection) (log enrichment); library NNK3; higher = more nucleation; inactive = no reads after selection;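 also: zero at mode of non-aggregating sequences after 7 days selection at 30°C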
Quantity: amyloid nucleation score

Solved cases (4 shown):
### Prompt What does the data say about its amyloid nucleation score? Entry: `SNSRVGIFWDRLVFRYCRGM`
### Response -0.5

### Prompt Requested read-out: amyloid nucleation score. Entry: `NLDLSGGESASWRNFSFFLK`
### Response inactive

### Prompt Consider the sequence shown here: `RCSCLTFVVSTK` What is its recorded amyloid nucleation score?
### Response 0.424

### Prompt Consider the sequence `HAGNWPSGSGRMSATRRFGW` and give its measured amyloid nucleation score.
### Response inactive

Next:
### Prompt # query: amyloid nucleation score of entry `SKRVSALRHKIRKNCVMNFD`
### Response inactive

### Prompt What value of amyloid nucleation score has been reported for the following sequence? `YGEFDTLQW`
### Response inactive

### Prompt So what does the record say about amyloid nucleation score for `RTNQLREPRANRWEGLAVLK` ?
### Response inactive

### Prompt Sample `NRVLSVFDLFLRVAFASRFR` — what was its amyloid nucleation score?
### Response inactive

### Prompt Fill in: amyloid nucleation score of `KQVNSCDFLMWMLLALHFKG` is ___
### Response inactive
